// data source = patent US20200057058A1

# system_name: monomeric streptavidin variant mSA2
# protocol_details: fluorescent binding curve, labeled mSA2 in 50% urine, 4 h; quadratic fit
Assign [P]T (total concentration of binding sites) to each entry below.
One number for each entry, in nM.

Items follow; give [P]T (total concentration of binding sites) for each.
1. 3xSP9.6k thin film (3x rcSso7d.SA-PNIPAM conjugate, PNIPAM Mn 9.6 kDa) (designed binder, maleimide end-functionalized PNIPAM (Mn 9.6 kDa) on the N-terminal Cys; film lightly crosslinked with glutaraldehyde) MGSSHHHHHHSSGLVPRGSHMCATVKFTYQGEEKQVDISKIKIVARDGQYIDFKYDEGGGAYGYGWVSEKDAPKELLQMLEKQGGGGSGGGGSMATVKFTYQGEEKQVDISKIKIVARDGQYIDFKYDEGGGAYGYGWVSEKDAPKELLQMLEKQGGGGSGGGGSMATVKFTYQGEEKQVDISKIKIVARDGQYIDFKYDEGGGAYGYGWVSEKDAPKELLQMLEKQGG
2. 3xSP30.3k thin film (3x rcSso7d.SA-PNIPAM conjugate, PNIPAM Mn 30.3 kDa) (designed binder, maleimide end-functionalized PNIPAM (Mn 30.3 kDa) on the N-terminal Cys; film lightly crosslinked with glutaraldehyde) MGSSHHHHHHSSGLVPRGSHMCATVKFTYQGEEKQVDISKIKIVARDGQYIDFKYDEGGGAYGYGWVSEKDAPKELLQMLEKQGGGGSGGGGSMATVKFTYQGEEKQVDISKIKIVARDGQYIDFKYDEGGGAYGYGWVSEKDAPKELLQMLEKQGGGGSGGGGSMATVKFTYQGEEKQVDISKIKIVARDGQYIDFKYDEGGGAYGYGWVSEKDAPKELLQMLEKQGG
3. 3xSP77.6k thin film (3x rcSso7d.SA-PNIPAM conjugate, PNIPAM Mn 77.6 kDa) (designed binder, maleimide end-functionalized PNIPAM (Mn 77.6 kDa) on the N-terminal Cys; film lightly crosslinked with glutaraldehyde) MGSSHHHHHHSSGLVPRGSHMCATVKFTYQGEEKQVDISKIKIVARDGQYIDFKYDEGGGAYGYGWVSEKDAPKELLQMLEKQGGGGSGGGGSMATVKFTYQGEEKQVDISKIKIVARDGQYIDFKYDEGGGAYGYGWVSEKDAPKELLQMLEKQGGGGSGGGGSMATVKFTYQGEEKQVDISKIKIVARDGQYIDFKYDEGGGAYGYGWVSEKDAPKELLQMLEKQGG
4. rcSso7d.SA monolayer (designed binder, EDC/NHS-activated protein coupled to an amine-functionalized silicon wafer, also called monomeric rcSso7d.SA; surface-immobilized rcSso7d.SA) MGSIHHHHHHSSGLVPRGSHMCATVKFTYQGEEKQVDISKIKIVARDGQYIDFKYDEGGGAYGYGWVSEKDAPKELLQMLEKQ

Response:
1. 17
2. 16
3. 15
4. 0.4
